- Measured on: plasma purified human complement protein C3 (human) (UniProt P01024)
- Sequence (P01024 23-667, chain 1 of 2): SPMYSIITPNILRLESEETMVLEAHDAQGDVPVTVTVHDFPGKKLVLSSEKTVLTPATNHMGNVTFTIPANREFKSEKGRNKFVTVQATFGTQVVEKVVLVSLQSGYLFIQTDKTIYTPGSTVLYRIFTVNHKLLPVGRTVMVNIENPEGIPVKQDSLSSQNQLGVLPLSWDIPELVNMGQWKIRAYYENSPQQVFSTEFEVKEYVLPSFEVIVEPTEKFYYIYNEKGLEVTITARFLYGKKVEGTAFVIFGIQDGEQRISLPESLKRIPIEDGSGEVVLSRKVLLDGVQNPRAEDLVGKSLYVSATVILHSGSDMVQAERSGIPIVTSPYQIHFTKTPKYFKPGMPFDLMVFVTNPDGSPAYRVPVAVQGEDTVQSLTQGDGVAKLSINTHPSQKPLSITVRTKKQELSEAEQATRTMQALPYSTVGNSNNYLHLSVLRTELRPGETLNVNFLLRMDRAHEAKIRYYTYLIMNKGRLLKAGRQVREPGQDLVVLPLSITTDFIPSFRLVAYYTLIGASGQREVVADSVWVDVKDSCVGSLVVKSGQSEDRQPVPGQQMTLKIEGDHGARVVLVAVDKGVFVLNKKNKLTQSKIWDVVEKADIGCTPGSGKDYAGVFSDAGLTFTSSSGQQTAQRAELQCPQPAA
- Sequence (P01024 672-1663, chain 2 of 2): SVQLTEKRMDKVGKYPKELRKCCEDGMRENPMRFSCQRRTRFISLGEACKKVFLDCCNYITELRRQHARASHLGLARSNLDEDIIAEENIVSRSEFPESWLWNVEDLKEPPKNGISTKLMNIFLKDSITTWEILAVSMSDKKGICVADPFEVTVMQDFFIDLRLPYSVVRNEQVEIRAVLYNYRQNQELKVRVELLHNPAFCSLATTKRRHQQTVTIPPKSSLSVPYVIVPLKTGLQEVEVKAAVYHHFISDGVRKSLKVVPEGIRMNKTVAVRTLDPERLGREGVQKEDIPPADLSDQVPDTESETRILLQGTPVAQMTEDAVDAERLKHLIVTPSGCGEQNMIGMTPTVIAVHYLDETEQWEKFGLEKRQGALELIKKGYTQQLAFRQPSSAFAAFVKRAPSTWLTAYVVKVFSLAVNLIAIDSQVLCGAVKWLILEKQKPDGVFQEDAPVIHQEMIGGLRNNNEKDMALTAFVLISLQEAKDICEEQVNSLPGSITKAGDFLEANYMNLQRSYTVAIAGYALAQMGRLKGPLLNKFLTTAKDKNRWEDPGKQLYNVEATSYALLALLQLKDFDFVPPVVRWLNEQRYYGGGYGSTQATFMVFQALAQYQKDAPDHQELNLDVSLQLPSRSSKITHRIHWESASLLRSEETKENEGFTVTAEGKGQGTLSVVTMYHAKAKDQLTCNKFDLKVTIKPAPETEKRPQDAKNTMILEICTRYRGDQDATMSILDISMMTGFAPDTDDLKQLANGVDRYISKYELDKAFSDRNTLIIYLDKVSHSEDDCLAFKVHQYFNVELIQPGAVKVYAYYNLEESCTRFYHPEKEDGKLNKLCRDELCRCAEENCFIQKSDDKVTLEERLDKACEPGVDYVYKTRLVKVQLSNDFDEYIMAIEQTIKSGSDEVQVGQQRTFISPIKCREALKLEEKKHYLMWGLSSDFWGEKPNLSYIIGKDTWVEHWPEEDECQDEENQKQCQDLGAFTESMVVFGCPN
- Run description: cell-based or functional assay
Quantity kind: EC50 of hC3 cleavage (nM)

• MTSP-1 Q38H/I41S/D60bT/F60eS/ins97aV/F97D/T98P/F99L/C122S/G151H/Q175L/Q192V (enzyme) VVGGTDADEGEWPWQVSLHALGHGHSCGASLISPNWLVSAAHCYIDTRGSRYSDPTQWTAFLGLHDQSQRSAPGVQERRLKRIISHPFFNDDVPLDYDIALLELEKPAEYSSMVRPISLPDASHVFPAGKAIWVTGWGHTQYGGTHALILQKGEIRVINQTTCENLLPQLITPRMMCVGFLSGGVDSCVGDSGGPLSSVEADGRIFQAGVVSWGDGCAQRNKPGVYTRLPLFRDWIKENTGV = 20.2
• MTSP-1 ins97aG/F97N/T98D/F99L/C122S/Q192E/D217H/K224A (enzyme) VVGGTDADEGEWPWQVSLHALGQGHICGASLISPNWLVSAAHCYIDDRGFRYSDPTQWTAFLGLHDQSQRSAPGVQERRLKRIISHPFFNDNGDLDYDIALLELEKPAEYSSMVRPISLPDASHVFPAGKAIWVTGWGHTQYGGTGALILQKGEIRVINQTTCENLLPQQITPRMMCVGFLSGGVDSCEGDSGGPLSSVEADGRIFQAGVVSWGHGCAQRNAPGVYTRLPLFRDWIKENTGV = 2790
• MTSP-1 H40R/I41H/Y60gF/F97D/F99L/C122S/Q192G/D217R/K224A (enzyme) VVGGTDADEGEWPWQVSLHALGQGRHCGASLISPNWLVSAAHCYIDDRGFRFSDPTQWTAFLGLHDQSQRSAPGVQERRLKRIISHPFFNDDTLDYDIALLELEKPAEYSSMVRPISLPDASHVFPAGKAIWVTGWGHTQYGGTGALILQKGEIRVINQTTCENLLPQQITPRMMCVGFLSGGVDSCGGDSGGPLSSVEADGRIFQAGVVSWGRGCAQRNAPGVYTRLPLFRDWIKENTGV = 25.9
• MTSP-1 Q38H/I41A/D60bA/F60eR/ins97aE/F97T/T98G/F99L/C122S/G151N/Q175L/Q192E (enzyme) VVGGTDADEGEWPWQVSLHALGHGHACGASLISPNWLVSAAHCYIDARGRRYSDPTQWTAFLGLHDQSQRSAPGVQERRLKRIISHPFFNDTEGLDYDIALLELEKPAEYSSMVRPISLPDASHVFPAGKAIWVTGWGHTQYGGTNALILQKGEIRVINQTTCENLLPQLITPRMMCVGFLSGGVDSCEGDSGGPLSSVEADGRIFQAGVVSWGDGCAQRNKPGVYTRLPLFRDWIKENTGV = 14.2
• MTSP-1 H40R/I41H/F97D/C122S/G151N (enzyme) VVGGTDADEGEWPWQVSLHALGQGRHCGASLISPNWLVSAAHCYIDDRGFRYSDPTQWTAFLGLHDQSQRSAPGVQERRLKRIISHPFFNDDTFDYDIALLELEKPAEYSSMVRPISLPDASHVFPAGKAIWVTGWGHTQYGGTNALILQKGEIRVINQTTCENLLPQQITPRMMCVGFLSGGVDSCQGDSGGPLSSVEADGRIFQAGVVSWGDGCAQRNKPGVYTRLPLFRDWIKENTGV = 110
